Biological target: G-protein coupled receptor 151 (Homo sapiens) (UniProt Q8TDV0)
Sequence (Q8TDV0 whole entry, looked up): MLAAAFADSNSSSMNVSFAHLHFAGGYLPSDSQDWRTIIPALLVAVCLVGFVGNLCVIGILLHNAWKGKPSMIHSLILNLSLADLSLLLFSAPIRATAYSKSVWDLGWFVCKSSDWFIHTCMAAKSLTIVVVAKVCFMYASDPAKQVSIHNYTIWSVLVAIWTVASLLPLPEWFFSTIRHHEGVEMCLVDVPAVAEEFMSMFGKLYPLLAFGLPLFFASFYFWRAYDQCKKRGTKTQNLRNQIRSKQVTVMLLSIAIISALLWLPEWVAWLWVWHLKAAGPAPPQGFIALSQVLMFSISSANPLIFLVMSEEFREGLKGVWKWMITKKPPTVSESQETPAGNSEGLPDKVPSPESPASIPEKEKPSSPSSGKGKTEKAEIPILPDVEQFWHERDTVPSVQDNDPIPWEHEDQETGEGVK
Assay: activators of human GPR151, primary screen, cell-based, PathHunter beta-arrestin, luminescence (AID 1508602);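 also: 0% = median of compound wells and 100% = cells with positive control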
Details: PathHunter beta-arrestin GPR151 cells, at 11.2 µM, stronger effect = higher value
About 6,800 (1%) of roughly 650,000 compounds were called active. The list comes from a sample in which actives are over-represented; it also holds close analogues and randomly drawn compounds.
measurementLabel: activation (%)
Answers are plain numbers, in %.

See these solved cases before continuing.
1) CCCCN(C)C(=O)C1(c2ccc(OC)cc2)CCOCC1; 0.343
2) CCc1ccc(-n2c(C)c(C)n3c4c(=O)n(CC)c(=O)n(C)c4nc23)cc1; 5.92

For each of the items listed, what is its activation?
1. C=CCc1cccc(/C=N/NC(=O)CCC(=O)Nc2ccc(Br)cc2)c1O
2. CCOC(=O)c1sc(=S)n(-c2ccc(Br)cc2)c1N
3. NC(=O)CN(c1ccccc1)S(=O)(=O)c1ccccc1[N+](=O)[O-]
4. CCOC(=O)Cn1c(CNC(=O)c2ccco2)nc2ccccc21
5. COc1ccc(CNC2CCCN(c3nc(C)c4ccc(C)cc4n3)CC2)cc1OC (stereo not given)
6. NS(=O)(=O)c1cccc(S(=O)(=O)c2ccc(Br)cc2)c1

[reply]
7.12
-1.26
0.204
-1.37
-0.801
1.39

Each of the following entries comes with a recorded value; kindly state activation for each.
1. O=C(c1ccc(Cl)cc1)N1N=C(c2ccccc2)CC1c1ccc(Cl)cc1 (stereo not given)
2. Cc1c2cnn(-c3ccccc3)c(=O)c2c(C)n1CCCC(=O)N1CCN(C)CC1

[reply]
[0.747, 0.178]

###

Biological target: G-protein coupled receptor 151 (Homo sapiens) (UniProt Q8TDV0)
Assay: activators of human GPR151, primary screen, cell-based, PathHunter beta-arrestin, luminescence (AID 1508602);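 also: 0% = median of compound wells and 100% = cells with positive control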
Conditions: PathHunter beta-arrestin GPR151 cells, at 11.2 µM
The whole screen tested about 650,000 compounds, of which about 6,800 (1%) were called active. Cut-off read from the data, not from the text of the source: active = activation above about 4.9%; inactive = the rest. The entries come from a sample that favours actives as a whole.
Give your call using only these classes: active, inactive

Study these solved cases before continuing.
1) CC(C)CNC(=O)c1ccc(F)c(S(=O)(=O)N2CCOCC2)c1; inactive
2) COc1ccc([N+](=O)[O-])cc1NC(=O)C1CC(Cl)=CCC1C(=O)O (stereo unspecified); active
3) O=C(C1CC1)N1CC[C@H]2[C@H](CCCN2C/C=C/c2ccco2)C1; inactive
4) Cc1cccc(-n2nc3c(c2NC(=O)CCC2CCCC2)CS(=O)(=O)C3)c1C; inactive
5) CN(Cc1ccccc1)C(=O)c1nc2ccc(-c3cn[nH]c3)cc2s1; active

Read the next record carefully.
[ask] Entry COc1ccc(N2C(=O)CSC2c2ccccc2F)cc1Cl (stereo unspecified) : call = ?
[reply] inactive

###

Can you tell me activation for the items I'm about to list?
Target: G-protein coupled receptor 151 (Homo sapiens) (UniProt Q8TDV0)
Test: activators of human GPR151, primary screen, cell-based, PathHunter beta-arrestin, luminescence (AID 1508602);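 also: 0% = median of compound wells and 100% = cells with positive control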
Conditions: PathHunter beta-arrestin GPR151 cells, at 11.2 µM, stronger effect = higher value
Screen size: about 650,000 compounds; about 6,800 (1%) were called active. Many of the other results were omitted from the sample, so actives are more common in it than they were.
Answers are plain numbers, in %.

Worked examples, 6 molecules total:
1) COc1ccc(C=O)cc1OCc1ccc(F)cc1; 4.92
2) CS(=O)(=O)N(CC(=O)Nc1ccc(F)cc1F)c1cc(Cl)c(Cl)cc1Cl; -0.649
3) Cc1cc(Cl)ccc1OCc1nc(-c2ccccc2)no1; 1.48
4) CC(C)C(=O)NC(C)c1nnc2n1CCN(Cc1cccc3ncccc13)CC2 (configuration not stated); 0.68
5) O=C1/C(=C\c2ccccc2)C(N2CCOCC2)=NN1c1ccc([N+](=O)[O-])cc1; 6.57
6) CC1(C)CC(=O)c2cc(C(=O)Nc3cccc(F)c3)c(=O)n(-c3ccccc3)c2C1; 0.451

Working through the 5 molecules below one at a time, give activation for each.
1. COc1ccc(C2/C(=C(\O)c3ccc(F)cc3)C(=O)C(=O)N2CCCN2CCOCC2)cc1 (configuration not stated)
2. CCCCC(=O)Nc1ccc(C(=O)N2CCN(c3ccccc3F)CC2)cc1
3. CCOc1ccc(NC(=O)COc2ccc(C)cc2C)cc1
4. C=C(C)Cn1c(N2CCN(CCO)CC2)nc2c1c(=O)[nH]c(=O)n2C
5. CCn1c(COc2ccccc2OC)nnc1SCC(=O)NC

[reply]
1.83
1.25
0.102
-0.406
1.05

###

Target: G-protein coupled receptor 151 (Homo sapiens)
Experiment: activators of human GPR151, primary screen, cell-based, PathHunter beta-arrestin, luminescence (AID 1508602);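 also: 0% = median of compound wells and 100% = cells with positive control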
Settings: PathHunter beta-arrestin GPR151 cells, at 11.2 µM, stronger effect = higher value
The campaign covered roughly 650,000 compounds. About 6,800 (1%) were called active. The list comes from a sample in which actives are over-represented; it also holds close analogues and randomly drawn compounds.
Give measured activation for each item. Keep answers brief.
One number for each entry, in %.

See these solved cases before continuing.
1) CC(C)n1c(=O)[nH]c2c(C(N)=O)nc(-c3ccc(-c4ccccc4)cc3)nc21; 5.61
2) CCOC(=O)C1=CN(C)C=C(C(=O)OCC)C1c1ccc(OC)c(Br)c1; -0.344
3) CN(CC(=O)Nc1ccccc1Cl)S(=O)(=O)c1ccc(F)cc1; -1.27

Kindly give each listed record's activation.
1. CN(CC(=O)Nc1cccc2c1CCCC2)S(=O)(=O)c1ccc(Cl)cc1
2. COc1ccc(C2CC(c3ccccc3)n3ncnc3N2)cc1 (stereo unspecified)
3. NC(=O)c1nc(-c2ccccc2)nc2c1[nH]c(=O)n2-c1ccc(F)cc1
4. N#CCCn1c2ccc(Cl)cc2c2cc(Cl)ccc21
5. CCOC(=O)C1=CN(c2ccc(OCC)cc2)C=C(C(=O)OCC)C1c1ccc(OC)cc1

[reply]
1: 5.67; 2: -0.25; 3: 0.0137; 4: 2.4; 5: 0.997

###

Biological target: G-protein coupled receptor 151 (Homo sapiens) (UniProt Q8TDV0)
Test: activators of human GPR151, primary screen, cell-based, PathHunter beta-arrestin, luminescence (AID 1508602);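 also: 0% = median of compound wells and 100% = cells with positive control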
Details: PathHunter beta-arrestin GPR151 cells, at 11.2 µM, stronger effect = higher value
Among all 650,000 compounds or so, about 6,800 (1%) were called active. The sample as a whole holds a higher share of actives than the screen did.
measurementLabel: activation

Here is how some compounds turned out for activation.
1) CCOC(=O)c1cc2cccnc2nc1C; 0.721% (inactive)
2) O=C(Nc1cccc(Cl)c1)N(C1=NCCC1)c1ccc(Cl)cc1; 0.148% (inactive)

[ask] Which activation is reported for this compound? CCOc1ccc(C2=C(C(=O)CC)Sc3nnc(CC)n3N2C(=O)CC)cc1
[reply] -0.342% (inactive)

###

Biological target: G-protein coupled receptor 151 (Homo sapiens) (UniProt Q8TDV0)
Assay: activators of human GPR151, primary screen, cell-based, PathHunter beta-arrestin, luminescence (AID 1508602);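 also: 0% = median of compound wells and 100% = cells with positive control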
Settings: PathHunter beta-arrestin GPR151 cells, at 11.2 µM
Hit rate of the full screen: of about 650,000 compounds, about 6,800 (1%) were called active. No stated cut-off is given here; in the data, active means activation above about 4.9%; inactive means the rest. The full list was thinned out, with actives kept by preference.
Response enum: active, inactive

[ask] Entry Cc1nc2nc(SCc3c(F)cccc3Cl)nn2c(C)c1Cc1c(F)cccc1Cl : call = ?
[reply] inactive

[ask] Answer briefly: the call reported for CCOC(=O)c1c(NC(=O)c2cc(S(N)(=O)=O)c(Cl)cc2Cl)sc2c1CCC(C)C2 (stereo not given) in this assay.
[reply] inactive

[ask] // outcome(item) with item = CC1(c2ccccc2NC(=O)c2ccc([N+](=O)[O-])cc2)CC1
[reply] active

[ask] State the result this test recorded for C/C(N)=C1\C(=O)C(=O)N(C)C1c1ccccc1 (stereo not given) .
[reply] inactive

[ask] # outcome recorded in this test, key = CN(Cc1ccno1)C(=O)CC1C(=O)NCCN1Cc1ccoc1 (stereo not given)
[reply] inactive

###

Target: G-protein coupled receptor 151 (Homo sapiens) (UniProt Q8TDV0)
Assay: activators of human GPR151, primary screen, cell-based, PathHunter beta-arrestin, luminescence (AID 1508602);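 also: 0% = median of compound wells and 100% = cells with positive control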
Conditions: PathHunter beta-arrestin GPR151 cells, at 11.2 µM
The whole screen tested about 650,000 compounds, of which about 6,800 (1%) were called active. Cut-off read from the data, not from the text of the source: active = activation above about 4.9%; inactive = the rest. What follows is part of a selection rich in actives, with near analogues and random picks from the rest.
Outcome (select one): active, inactive

Examples with answers:
1. CCCOc1ccc(C2CC(=O)NC3=C2C(=O)CC(C)(C)C3)cc1 (stereo unspecified); inactive
2. NC(=O)c1ccccc1NS(=O)(=O)c1cc(C(=O)O)c(Cl)cc1Cl; inactive
3. COc1ccc(-c2cc(-c3cccs3)nc3sc(C(N)=O)c(N)c23)cc1; inactive
4. O=C(O)CN1C(=O)CC(N2C(=O)/C(=C/c3ccc(F)cc3)SC2=S)C1=O (stereo unspecified); inactive
5. CC(C)CC(C(=O)Nc1ccc(Cl)cc1)N1C(=O)c2ccccc2C1=O (stereo unspecified); inactive
6. CC(C)CC(C(=O)Nc1cccc([N+](=O)[O-])c1)N1C(=O)c2ccccc2C1=O (stereo unspecified); active
7. c1cnc(Nc2nc(NCc3cccnc3)c3ncn(C4CCCCC4)c3n2)nc1; inactive
8. CCOC(=O)c1sc2nc(SCC(=O)NCc3ccccc3Cl)n(Cc3ccc(Cl)cc3)c(=O)c2c1C; inactive

[ask] Record lookup: outcome of this test for CS(=O)(=O)N(CC(=O)Nc1ccc(F)cc1F)c1ccc(F)cc1 ?
[reply] active

[ask] Just curious, what result did CC/C(Cc1ccccc1)=N\NC(=O)c1ccccc1 get here?
[reply] inactive

[ask] Please state the recorded outcome for this compound: Cc1cccc(NC(=O)/C(=C\c2ccco2)NC(=O)c2ccccc2Br)c1
[reply] inactive

[ask] I'd appreciate the recorded outcome for CSCCC(NC(C)=O)C(=O)OCC(=O)Nc1nnc(C(C)C)s1 (stereo unspecified) from this test.
[reply] inactive

[ask] Hello, I am checking results. What call was entered for CCC(=O)NC(c1nnc2n1CCN(Cc1ccc3cccnc3c1)CC2)C(C)C (stereo unspecified) ?
[reply] inactive

[ask] Entry CC(C)(C)C1(O)CC(=O)C(=O)NN1c1ccccc1 (stereo unspecified) : call = ?
[reply] inactive

[ask] Give the logged outcome of this assay for the following compound: COc1cc(C=O)ccc1OCc1ccc(Br)cc1
[reply] inactive

[ask] Outcome? O=C(O)CNC(=O)/C=C\c1ccc(Cl)cc1
[reply] inactive

Each recorded value in this set is attributed to PubChem BioAssay AID1508602.
